- Tested on: active mouse PAI-1 (Mus musculus (Mouse))
- Sequence (P22777 23-402): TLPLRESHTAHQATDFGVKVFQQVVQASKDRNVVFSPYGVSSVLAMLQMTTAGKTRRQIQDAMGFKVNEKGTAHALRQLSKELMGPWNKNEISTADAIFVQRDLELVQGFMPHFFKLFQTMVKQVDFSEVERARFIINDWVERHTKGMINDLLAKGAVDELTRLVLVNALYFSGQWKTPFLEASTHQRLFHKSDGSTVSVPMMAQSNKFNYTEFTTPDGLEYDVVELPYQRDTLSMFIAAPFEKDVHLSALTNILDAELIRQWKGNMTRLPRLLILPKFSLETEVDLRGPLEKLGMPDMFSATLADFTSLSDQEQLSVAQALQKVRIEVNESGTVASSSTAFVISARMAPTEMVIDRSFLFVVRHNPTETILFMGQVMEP
- Experimental protocol: Ex vivo plasma Luminex assay, mouse plasma spiked with active mouse PAI-1
- Condition parameters: mouse plasma spiked with active mouse PAI-1 3-4 ng/mL
Collected IC50 values appear next to each entry.
Express the result in µM but write the number alone.

Task: Looking for the measured IC50 of O=S(=O)(NNS(=O)(=O)c1ccc(O)c(O)c1)c1ccc(O)c(O)c1 [CDE-059] , can you help?
Result: 973

# evaluate next
Task: Which IC50 is listed for O=C(OC[C@H]1O[C@@H](OC(=O)c2cc(O)c(O)c(OC(=O)c3cc(O)c(O)c(O)c3)c2)[C@H](OC(=O)c2cc(O)c(O)c(OC(=O)c3cc(O)c(O)c(O)c3)c2)[C@@H](OC(=O)c2cc(O)c(O)c(OC(=O)c3cc(O)c(O)c(O)c3)c2)[C@@H]1OC(=O)c1cc(O)c(O)c(OC(=O)c2cc(O)c(O)c(O)c2)c1)c1cc(O)c(O)c(OC(=O)c2cc(O)c(O)c(O)c2)c1 [Tannic acid, tannic acid] ?
Result: 9.68

====

- Tested on: recombinant active human PAI-1 (Homo sapiens (Human))
- Sequence (P05121 24-402): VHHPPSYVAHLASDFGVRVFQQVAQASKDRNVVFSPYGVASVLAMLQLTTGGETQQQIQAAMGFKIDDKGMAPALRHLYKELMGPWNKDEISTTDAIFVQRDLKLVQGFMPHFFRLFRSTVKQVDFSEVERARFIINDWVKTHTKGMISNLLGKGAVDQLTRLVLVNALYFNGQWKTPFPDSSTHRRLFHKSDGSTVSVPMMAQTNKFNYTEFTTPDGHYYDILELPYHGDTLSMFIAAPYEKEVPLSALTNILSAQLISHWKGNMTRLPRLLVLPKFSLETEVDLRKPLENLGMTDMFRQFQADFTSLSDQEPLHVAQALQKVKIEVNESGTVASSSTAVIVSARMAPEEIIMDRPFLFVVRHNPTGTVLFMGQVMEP
- Experimental protocol: Fluorometric IC50 plate assay (PAI-1 inhibition of uPA, Z-Gly-Gly-Arg-AMC)
- Format: biochemical
- Condition parameters: in vitro, PAI-1 1 nM, uPA 2.5 nM, pH 7.8, 10% DMSO; ND = not detected, e.g. no inhibition
The entries below come with measured pIC50 values attached.
FYI, pIC50 means -log10 of a concentration in mol per litre.

Here is how some compounds turned out for pIC50.
Task: Can you look up the measured pIC50 of COc1cc(C(=O)N2CCN(C(=O)c3cc(OC)c(O)c(OC)c3)CC2)cc(OC)c1O [CDE-065] for me?
Result: 3.37

Task: Same again, this time with CC(C)(C)OC(=O)N[C@@H](Cc1ccc(O)c([N+](=O)[O-])c1)C(=O)O [CDE-028]
Result: 3.41

Task: Do the same for O=C(Oc1ccccc1OC(=O)c1cc(O)c(O)c(O)c1)c1cc(O)c(O)c(O)c1 [CDE-056] please
Result: 5.53

Task: Ok, now O=C(OCCOCCOCCOCCOC(=O)c1cc(O)c(O)c(O)c1)c1cc(O)c(O)c(O)c1 [CDE-011]
Result: 3.47

Task: Here is the next compound: O=S(=O)(NNS(=O)(=O)c1ccc(O)c(O)c1)c1ccc(O)c(O)c1 [CDE-059]
Result: 7.05

Task: Next: O=C(O[C@@H]1CCCC[C@H]1OC(=O)c1cc(O)c(O)c(O)c1)c1cc(O)c(O)c(O)c1 [CDE-034]
Result: 5.93

Task: Another: O=S(=O)(NCCNS(=O)(=O)c1ccc(O)c(O)c1)c1ccc(O)c(O)c1 [CDE-021]
Result: 3.35

---
Task: What measured pIC50 goes with O=C(O[C@H]1CCCC[C@H]1OC(=O)c1cc(O)c(O)c(O)c1)c1cc(O)c(O)c(O)c1 [CDE-031] ?
Result: 6.55

====

Measured log10 Kd by item
- Tested on: UniProt:P05121
- Experimental protocol: Surface plasmon resonance, loss of PAI-1 binding to immobilized anhydrotrypsin
- Condition parameters: PAI-1 2 nM preincubated with compound, SPR; read-out: Apparent KD (nM) ± SEM
Friendly reminder: values = log10 of Kd, unit nM.

Task: Endpoint output: log10 Kd of O=C(OCCOC(=O)c1cc(O)c(O)c(O)c1)c1cc(O)c(O)c(O)c1 [CDE-008] . Value?
Result: 1.36

Alright, here's another compound for you.
Task: Any idea what its log10 Kd is? The compound is O=C(O[C@@H]1CCCC[C@H]1OC(=O)c1cc(O)c(O)c(O)c1)c1cc(O)c(O)c(O)c1 [CDE-034]
Result: 1.83

====

Below: a set of entries, each annotated with reported IC50.
- Tested on: recombinant active human PAI-1 (Homo sapiens (Human))
- Experimental protocol: Fluorometric IC50 plate assay (PAI-1 inhibition of uPA, Z-Gly-Gly-Arg-AMC)
- Assay type: biochemical
- Condition parameters: in vitro, PAI-1 1 nM, uPA 2.5 nM, pH 7.8, 10% DMSO; ND = not detected, e.g. no inhibition
Report the figure in µM without appending any unit label.

Worked set:
Task: Recorded IC50 for O=C(NCCCNC(=O)c1cc(O)c(O)c(O)c1)c1cc(O)c(O)c(O)c1 [CDE-070] , please?
Result: 269

Task: // same read-out, input: O=C(OCCOCCOC(=O)c1cc(O)c(O)c(O)c1)c1cc(O)c(O)c(O)c1 [CDE-009]
Result: 49.3

Task: Then this compound: CN(N(C)S(=O)(=O)c1ccc(O)c(O)c1)S(=O)(=O)c1ccc(O)c(O)c1 [CDE-068]
Result: 32.7

Task: Lookup O=C(OCCCOC(=O)c1cc(O)c(O)c(O)c1)c1cc(O)c(O)c(O)c1 [CDE-013]
Result: 7.85

Task: And the next one, O=C(OCCOC(=O)c1cc(O)c(O)c(O)c1)c1cc(O)c(O)c(O)c1 [CDE-008] ?
Result: 0.37

More entries:
Task: Fill blank: measured IC50 of the compound CCN(CCN(CC)S(=O)(=O)c1ccc(O)c(O)c1)S(=O)(=O)c1ccc(O)c(O)c1 [CDE-032] is ____.
Result: 10.2

Task: Can you handle O=C(OCCOCCOCCOC(=O)c1cc(O)c(O)c(O)c1)c1cc(O)c(O)c(O)c1 [CDE-012] next?
Result: 196

====

Each item that follows carries a reported Kd.
- Tested on: PAI-1 (Homo sapiens (Human))
- Experimental protocol: Surface plasmon resonance, loss of PAI-1 binding to immobilized anhydrotrypsin
- Condition parameters: PAI-1 2 nM preincubated with compound, SPR; read-out: Apparent KD (nM) ± SEM
State the answer as a number, implicitly in nM.

Worked cases, Kd given:
Task: Notebook: pull reported Kd for PAI-1 (Homo sapiens (Human)), entry O=C(OCC(COC(=O)c1cc(O)c(O)c(O)c1)OC(=O)c1cc(O)c(O)c(O)c1)c1cc(O)c(O)c(O)c1
Result: 5.3

Task: Please answer likewise for O=C(O[C@H]1CCCC[C@H]1OC(=O)c1cc(O)c(O)c(O)c1)c1cc(O)c(O)c(O)c1
Result: 31

Consider the additional compound presented here.
Task: Report Kd for O=C(Oc1ccccc1OC(=O)c1cc(O)c(O)c(O)c1)c1cc(O)c(O)c(O)c1 tested on PAI-1 (Homo sapiens (Human)).
Result: 51
